Values compiled from patent US12522587B2.

- Test system: IGROV-1
- Measurement description: Growth inhibition of cancer cell lines
- Assay type: cell-based
- Measurement conditions: Homo sapiens; IGROV-1, ovarian adenocarcinoma; 50% inhibition of growth
- Excerpt: We tested the ability of compound I-1 to inhibit the growth of 12 additional cell lines, derived from a variety of different types of human cancer.
Reported endpoint: pIC50
Would you please state pIC50, meaning minus log10 of the concentration in mol/L, as a bare number?

Sample CCC(=O)N1CCc2cc(-c3ccc(C(=O)NCc4cccnc4)cc3)ccc21 — what was its pIC50? 5.34

* * *

- Test system: MV-4-11 cells
- Measurement description: Cell viability in MV-4-11 cells (CellTiter Glo2, 4 days)
- Format: cell-based
- Measurement conditions: Homo sapiens, MV4-11, 96 h
Reported endpoint: IC50 (nM)
Number only, in nM; omit the unit.

Sample CCC(=O)N1CCc2c1ccc(-c1ccc(C(=O)NCc3cccnc3)cc1)c2C — what was its IC50? 565

Sample CCC(=O)N(C)c1ccc(-c2ccc(C(=O)NCc3cccnc3)cc2)cc1 — what was its IC50? 218

Sample CCC(=O)N(C)Cc1ccc(-c2ccc(C(=O)NCc3cccnc3)cc2)cc1 — what was its IC50? 765

Sample CCOC(=O)N(C)c1ccc(-c2ccc(C(=O)NCc3cccnc3)cc2)cc1 — what was its IC50? 741

Sample CCC(=O)N(C)c1ccc(-c2ccc(C(=O)NCc3cccnc3)cn2)cc1C — what was its IC50? 1220

Sample CCC(=O)N1CCc2cc(-c3ccc(C(=O)NCc4cccnc4)c(F)c3)ccc21 — what was its IC50? 845

Sample CCC(=O)N1CCc2cc(-c3ccc(C(=O)NCc4cccnc4)cc3)cc(C)c21 — what was its IC50? 670

Sample CCC(=O)N(C)c1ccc(-c2ccc(C(=O)NCc3cccnc3)cc2)cc1Cl — what was its IC50? 613

* * *

- System: MV-4-11 cells
- Measurement description: Cell viability in MV-4-11 cells (CellTiter Glo2, 4 days)
- Format: cell-based
- Measurement conditions: Homo sapiens, MV4-11, 96 h
Reported endpoint: IC50 (µM)
Number only, in µM; omit the unit.

Sample CC(=O)N(C)c1ccc(-c2ccc(C(=O)NCc3cccnc3)nc2)cc1 — what was its IC50? 1.47

Sample CCC(=O)N1CCc2cc(-c3ccc(C(=O)NCc4cccnc4)cn3)ccc21 — what was its IC50? 10.4

Sample CCC(=O)N(C)c1ccc(-c2nc(C(=O)NCc3cccnc3)cs2)cc1 — what was its IC50? 3.92

Sample CCC(=O)N(C)c1ccc(-c2ccc(C(=O)NCc3cccnc3)cc2)c(Cl)c1 — what was its IC50? 1.1

Sample CCC(=O)N1CCc2cc(-c3ccc(C(=O)NCc4cccnc4)cc3)ccc21 — what was its IC50? 2.93

* * *

Answer each item with its documented pIC50.
- Tested on: AGS cells
- Measurement description: Cell viability in AGS cells (CellTiter Glo2, 8-point dose response, 4 days)
- Type: cell-based, human
- Measurement conditions: Homo sapiens, AGS, 96 h
Would you please state pIC50, meaning minus log10 of the concentration in mol/L, as a bare number?

Sample CC(=O)N1CCc2cc(-c3ccc(C(=O)NCc4ccccn4)cc3)ccc21 [Compound I-175] — what was its pIC50? 5.29

Sample CC(=O)N(C)c1ccc(-c2ccc(C(=O)NCc3cccnc3)cc2)cc1C [Compound I-216] — what was its pIC50? 5.61

Sample CCC(=O)N(C)c1ccc(-c2ccc(C(=O)NCc3cccnc3)cn2)c(C)c1 [Compound I-246] — what was its pIC50? 4.92

Sample CCC(=O)N(C)c1ccc(-c2ccc(C(=O)NCc3cccnc3)nc2)cc1C [Compound I-227] — what was its pIC50? 5.28

Sample CCC(=O)N1CCc2cc(-c3ccc(C(=O)NCc4cccnc4)c(O)c3)ccc21 [Compound I-210] — what was its pIC50? 5.52

* * *

- Tested on: Raji
- Measurement description: Growth inhibition of additional cancer cell lines
- Type: cell-based
- Measurement conditions: Homo sapiens, Heme (Burkitt's lymphoma), 50% inhibition of growth
Reported endpoint: IC50 (µM)
Number only, in µM; omit the unit.

Sample CCC(=O)N1CCc2cc(-c3ccc(C(=O)NCc4cccnc4)cc3)ccc21 [Compound I-1] — what was its IC50? 2.52

* * *

- Tested on: AGS cells
- Measurement description: Cell viability in AGS cells (CellTiter Glo2, 8-point dose response, 4 days)
- Type: cell-based, human
- Measurement conditions: Homo sapiens, AGS, 96 h
So basically, the class depends on measured IC50, and the ranges are low = under 2 µM, mid = from 2 µM up to 4 µM, high = 4 µM and over

For this molecule, which bin applies? CCC(=O)N1CCc2cc(-c3nc(C(=O)NCc4cccnc4)c[nH]3)ccc21 high

For this molecule, which bin applies? CCC(=O)N1CCc2cc(-c3ccc(C(=O)NCc4cccc(F)c4)cc3)ccc21 high

For this molecule, which bin applies? CC(C)C(=O)N(C)c1ccc(-c2ccc(C(=O)NCc3cccnc3)cc2)cc1 low

For this molecule, which bin applies? CCC(=O)N1CCc2cc(-c3ccc(C(=O)NCC4CNC4)cc3)ccc21 high

For this molecule, which bin applies? CCOC(=O)N(C)c1ccc(-c2ccc(C(=O)NCc3cccnc3)cc2)cc1 mid

For this molecule, which bin applies? CCC(=O)N(C)c1ccc(-c2ccc(C(=O)NCc3cccnc3)cc2)c(C)c1 low

For this molecule, which bin applies? CCC(=O)N1CCc2cc(-c3ccc(C(=O)NC(C)c4ccccc4)cc3)ccc21 (centres unmarked) high

For this molecule, which bin applies? CCC(=O)N1CCc2cc(-c3ccc(C(=O)NCc4cccnc4)cc3OC)ccc21 high

For this molecule, which bin applies? CCN(C)C(=O)c1ccc(-c2ccc(C(=O)NCc3cccnc3)cc2)cc1 low

For this molecule, which bin applies? CCC(=O)N(C)c1ccc(-c2nc(C(=O)NCc3cccnc3)cs2)cc1 high

For this molecule, which bin applies? CCC(=O)N(C)c1ccc(-c2ccc(C(=O)NCc3cccnc3)cc2)cc1OC mid

For this molecule, which bin applies? CCC(=O)n1ccc2cc(-c3ccc(C(=O)NCc4cccnc4)cc3)ccc21 high

For this molecule, which bin applies? CCC(=O)N(C)c1ccc(-c2ccc(C(=O)NCc3cncc(F)c3)cc2)cc1 high

For this molecule, which bin applies? CCC(=O)N1CCc2c1ccc(-c1ccc(C(=O)NCc3cccnc3)cc1)c2F mid

For this molecule, which bin applies? CCC(=O)N1CCc2cc(-c3ccc(C(=O)NCc4cn[nH]c4)cc3)ccc21 high

For this molecule, which bin applies? CC(C)(O)C(=O)N1CCc2cc(-c3ccc(C(=O)NCc4cccnc4)cc3)ccc21 high

For this molecule, which bin applies? COCCN1CCc2cc(-c3ccc(C(=O)NCc4cccnc4)cc3)ccc21 mid

* * *

- Tested on: UACC-62
- Measurement description: Growth inhibition of cancer cell lines
- Assay type: cell-based
- Measurement conditions: Homo sapiens; UACC-62, melanoma; 50% inhibition of growth
pIC50: −log10 of the molar value.
Reported endpoint: pIC50

Sample CCC(=O)N1CCc2cc(-c3ccc(C(=O)NCc4cccnc4)cc3)ccc21 — what was its pIC50? < 5.00

* * *

- Test system: AGS cells
- Measurement description: Cell viability in AGS cells (CellTiter Glo2, 8-point dose response, 4 days)
- Format: cell-based, human
- Measurement conditions: Homo sapiens, AGS, 96 h
- Procedure: AGS cells were treated with DMSO (no drug control) or each compound in Table 5 in an 8-point dose response for 4 days. Cell viability was measured using CellTiter Glo2. The IC50 of each compound was determined using CDD Vault.
Answer each item with its documented IC50.
Number only, in µM; omit the unit.

Sample CCC(=O)N1CCc2cc(-c3ccc(C(=O)Nc4cccnc4)cc3)ccc21 — what was its IC50? 6.61

Sample CN(C(=O)c1cocn1)c1ccc(-c2ccc(C(=O)NCc3cccnc3)cc2)cc1 — what was its IC50? 5.16

Sample CCC(=O)N1CCc2cc(-c3ccc(C(=O)NCc4cccnc4)cc3C)ccc21 — what was its IC50? 2.03

Sample CCC(=O)N(C)c1ccc(-c2ccc(C(=O)NCc3cccnc3)cn2)cc1C — what was its IC50? 1.28

Sample CCC(=O)N1CCc2c1ccc(-c1ccc(C(=O)NCc3cccnc3)cc1)c2Cl — what was its IC50? 0.96

Sample CCC(=O)N1CCc2cc(-c3ccc(C(=O)NCc4cccnc4)nc3)ccc21 — what was its IC50? 2.89

* * *

- Measurement description: Pharmacokinetic profile after oral gavage in mice
- Format: in vivo
- Measurement conditions: male, CD1, mouse, single PO 100 mg/kg, plasma over 24 hours
Reported endpoint: half-life

Sample CCC(=O)N1CCc2cc(-c3ccc(C(=O)NCc4cccnc4)cc3)ccc21 — what was its half-life? ~6 h

* * *

- Test system: AGS cells
- Measurement description: Cell viability in AGS cells (CellTiter Glo2, 8-point dose response, 4 days)
- Type: cell-based, human
- Measurement conditions: Homo sapiens, AGS, 96 h
Reported endpoint: pIC50
Would you please state pIC50, meaning minus log10 of the concentration in mol/L, as a bare number?

Sample CC(=O)N1CCc2cc(-c3ccc(C(=O)NCc4cccnc4)cc3)ccc21 — what was its pIC50? 5.42

Sample CCCC(=O)N(C)c1ccc(-c2ccc(C(=O)NCc3cccnc3)cc2)cc1 — what was its pIC50? 5.34

Sample CCC(=O)N1CCc2cc(-c3ccc(C(=O)NCc4cccnc4)cc3)ccc21 — what was its pIC50? 5.61

Sample CCC(=O)N(C)c1ccc(-c2ccc(C(=O)NCc3cccnc3)cc2)cc1Cl — what was its pIC50? 5.96

Sample CCC(=O)N1CCc2cc(-c3ccc(C(=O)NCc4cccnc4)cc3)c(Cl)cc21 — what was its pIC50? 5.87

Sample CCC(=O)N(C)c1ccc(-c2ccc(C(=O)NCc3cccnc3)cc2)c(Cl)c1 — what was its pIC50? 5.83

Sample CN(C(=O)c1ccccc1)c1ccc(-c2ccc(C(=O)NCc3cccnc3)cc2)cc1 — what was its pIC50? 5.29

Sample CCC(=O)N1CCc2cc(-c3ccc(C(=O)NCc4cccnc4)cc3)c(F)cc21 — what was its pIC50? 5.94

Sample CCC(=O)N1CCc2cc(-c3ccc(C(=O)NCc4ccc(Cl)cc4)cc3)ccc21 — what was its pIC50? 4.59
